Measured values drawn from patent EP4813993A1 for this set.

Test: Pharmacokinetic study in SD rats
Assay type: in vivo
Conditions: male, rat, plasma, Oral administration, 10 mg/kg

compound	endpoint-unit	bioavailability
COc1c(C2CC(C)(C(F)(F)F)SC2C(=O)Nc2ccnc(C(N)=O)c2)ccc(F)c1F (stereo not shown)	%	48.5

====

Test: Pharmacokinetic study in ICR mice
Type: in vivo
Settings: male, mouse, plasma, Oral administration, 10 mg/kg

compound	AUC(0-inf) / ng·h/mL
COc1c([C@@H]2C[C@](C)(C(F)(F)F)S[C@H]2C(=O)Nc2ccc(F)c(S(N)(=O)=O)c2)ccc(F)c1F	34100
COc1c([C@@H]2C[C@](C)(C(F)(F)F)S[C@H]2C(=O)Nc2ccn3nncc3c2)ccc(F)c1F	2580
COc1c([C@@H]2C[C@](C)(C(F)(F)F)SC2C(=O)Nc2ccnc([N+](=O)[O-])c2)ccc(F)c1F (stereo in doubt)	10200

====

Test: Pharmacokinetic study in SD rats
Format: in vivo
Details: male, rat, plasma, Oral administration, 10 mg/kg

compound	half-life (h)
COc1c(C2CC(C)(C(F)(F)F)SC2C(=O)Nc2ccnc(C(N)=O)c2)ccc(F)c1F (stereo not shown)	6.29

====

Target: Nav1.8 channels (Homo sapiens)
Assay: Manual patch-clamp, current of stably overexpressed Nav1.8 channels (resting state voltage program)
pIC50: −log10 of the molar value.
Output Yes for pIC50 not less than 10; output No otherwise.

chemical-string	class-assignment
CO/N=C(\N)c1cc(NC(=O)[C@@H]2S[C@@](C)(C(F)(F)F)C[C@H]2c2ccc(F)c(F)c2OC)ccn1	Yes
COc1c([C@@H]2C[C@](C)(C(F)(F)F)S[C@H]2C(=O)Nc2ccnc(N=[N+]=[N-])c2)ccc(F)c1F	Yes
COc1c([C@@H]2C[C@](C)(C(F)(F)F)S[C@H]2C(=O)Nc2ccc(NS(N)(=O)=O)c(F)c2)ccc(F)c1F	No
COc1c([C@@H]2C[C@](C)(C(F)(F)F)S[C@H]2C(=O)Nc2cccc(S(=O)(=O)NCCN)c2)ccc(F)c1F	Yes
COc1c([C@@H]2C[C@](C)(C(F)(F)F)S[C@H]2C(=O)Nc2cccc(S(N)(=O)=O)c2)ccc(F)c1F	Yes

====

Tested on: acetic acid writhing model
Experiment: Mouse acetic acid writhing model
Assay type: in vivo, ICR mice
Details: ICR mice, Dose 50 mg/kg, 60 min before 0.8% acetic acid i.p., 30 min observation; Mean + SD, n = 10
Entries and their Number of writhing responses

molecule	Number of writhing responses
COc1c([C@@H]2C[C@](C)(C(F)(F)F)S[C@H]2C(=O)Nc2ccnc(N=[N+]=[N-])c2)ccc(F)c1F [a-20-A]	17
COc1c([C@@H]2C[C@](C)(C(F)(F)F)S[C@H]2C(=O)Nc2ccc3c(c2)COB3O)ccc(F)c1F [Compound 119-A]	18
COc1c(C2CC(C)(C(F)(F)F)SC2C(=O)Nc2ccnc(C(N)=O)c2)ccc(F)c1F (single isomer, unassigned) [Compound 139-A]	27
COc1c([C@H]2[C@H](C(=O)Nc3ccnc(C(N)=O)c3)O[C@@](C)(C(F)(F)F)[C@H]2C)ccc(F)c1F [VX-548, reference compound]	29

====

Entries and their concentration at 2 h
Assay: Tissue distribution study (dorsal root ganglia) in ICR mice
Type: in vivo
Details: male, mouse, oral administration 20 mg/kg, Time 2 h

molecule	concentration at 2 h
COc1c(C2CC(C)(C(F)(F)F)SC2C(=O)Nc2ccnc(C(N)=O)c2)ccc(F)c1F (single isomer, unassigned)	9380 ng/g
COc1c([C@@H]2C[C@](C)(C(F)(F)F)S[C@H]2C(=O)Nc2ccc3c(c2)COB3O)ccc(F)c1F	2580 ng/g
COc1c([C@@H]2C[C@](C)(C(F)(F)F)S[C@H]2C(=O)Nc2ccc(F)c(S(N)(=O)=O)c2)ccc(F)c1F	2850 ng/g
COc1c([C@@H]2C[C@](C)(C(F)(F)F)S[C@H]2C(=O)Nc2ccc3nnnn3c2)ccc(F)c1F	7200 ng/g
COc1c([C@@H]2C[C@](C)(C(F)(F)F)S[C@H]2C(=O)Nc2ccnc(N=[N+]=[N-])c2)ccc(F)c1F	5900 ng/g
COc1c([C@@H]2C[C@](C)(C(F)(F)F)S[C@H]2C(=O)Nc2cccc(S(N)(=O)=O)c2)ccc(F)c1F	2360 ng/g
COc1c([C@@H]2C[C@](C)(C(F)(F)F)S[C@H]2C(=O)Nc2ccnc(C#N)c2)ccc(F)c1F	6070 ng/g

====

Experiment: Pharmacokinetic study in SD rats
Format: in vivo
Settings: rat, in vivo, Oral administration, 10 mg/kg
readout-label: bioavailability (%)

compound	endpoint-unit	assay-value
COc1c(C2C(C(=O)Nc3ccnc(C(N)=O)c3)OC(C)(C(F)(F)F)C2C)ccc(F)c1F (racemic) [VX-548(rac)]	%	37.6

====

Target: Nav1.8 channels (Homo sapiens, UniProt Q9Y5Y9)
Construct: expressed in transfected cells
Sequence (Q9Y5Y9 whole entry): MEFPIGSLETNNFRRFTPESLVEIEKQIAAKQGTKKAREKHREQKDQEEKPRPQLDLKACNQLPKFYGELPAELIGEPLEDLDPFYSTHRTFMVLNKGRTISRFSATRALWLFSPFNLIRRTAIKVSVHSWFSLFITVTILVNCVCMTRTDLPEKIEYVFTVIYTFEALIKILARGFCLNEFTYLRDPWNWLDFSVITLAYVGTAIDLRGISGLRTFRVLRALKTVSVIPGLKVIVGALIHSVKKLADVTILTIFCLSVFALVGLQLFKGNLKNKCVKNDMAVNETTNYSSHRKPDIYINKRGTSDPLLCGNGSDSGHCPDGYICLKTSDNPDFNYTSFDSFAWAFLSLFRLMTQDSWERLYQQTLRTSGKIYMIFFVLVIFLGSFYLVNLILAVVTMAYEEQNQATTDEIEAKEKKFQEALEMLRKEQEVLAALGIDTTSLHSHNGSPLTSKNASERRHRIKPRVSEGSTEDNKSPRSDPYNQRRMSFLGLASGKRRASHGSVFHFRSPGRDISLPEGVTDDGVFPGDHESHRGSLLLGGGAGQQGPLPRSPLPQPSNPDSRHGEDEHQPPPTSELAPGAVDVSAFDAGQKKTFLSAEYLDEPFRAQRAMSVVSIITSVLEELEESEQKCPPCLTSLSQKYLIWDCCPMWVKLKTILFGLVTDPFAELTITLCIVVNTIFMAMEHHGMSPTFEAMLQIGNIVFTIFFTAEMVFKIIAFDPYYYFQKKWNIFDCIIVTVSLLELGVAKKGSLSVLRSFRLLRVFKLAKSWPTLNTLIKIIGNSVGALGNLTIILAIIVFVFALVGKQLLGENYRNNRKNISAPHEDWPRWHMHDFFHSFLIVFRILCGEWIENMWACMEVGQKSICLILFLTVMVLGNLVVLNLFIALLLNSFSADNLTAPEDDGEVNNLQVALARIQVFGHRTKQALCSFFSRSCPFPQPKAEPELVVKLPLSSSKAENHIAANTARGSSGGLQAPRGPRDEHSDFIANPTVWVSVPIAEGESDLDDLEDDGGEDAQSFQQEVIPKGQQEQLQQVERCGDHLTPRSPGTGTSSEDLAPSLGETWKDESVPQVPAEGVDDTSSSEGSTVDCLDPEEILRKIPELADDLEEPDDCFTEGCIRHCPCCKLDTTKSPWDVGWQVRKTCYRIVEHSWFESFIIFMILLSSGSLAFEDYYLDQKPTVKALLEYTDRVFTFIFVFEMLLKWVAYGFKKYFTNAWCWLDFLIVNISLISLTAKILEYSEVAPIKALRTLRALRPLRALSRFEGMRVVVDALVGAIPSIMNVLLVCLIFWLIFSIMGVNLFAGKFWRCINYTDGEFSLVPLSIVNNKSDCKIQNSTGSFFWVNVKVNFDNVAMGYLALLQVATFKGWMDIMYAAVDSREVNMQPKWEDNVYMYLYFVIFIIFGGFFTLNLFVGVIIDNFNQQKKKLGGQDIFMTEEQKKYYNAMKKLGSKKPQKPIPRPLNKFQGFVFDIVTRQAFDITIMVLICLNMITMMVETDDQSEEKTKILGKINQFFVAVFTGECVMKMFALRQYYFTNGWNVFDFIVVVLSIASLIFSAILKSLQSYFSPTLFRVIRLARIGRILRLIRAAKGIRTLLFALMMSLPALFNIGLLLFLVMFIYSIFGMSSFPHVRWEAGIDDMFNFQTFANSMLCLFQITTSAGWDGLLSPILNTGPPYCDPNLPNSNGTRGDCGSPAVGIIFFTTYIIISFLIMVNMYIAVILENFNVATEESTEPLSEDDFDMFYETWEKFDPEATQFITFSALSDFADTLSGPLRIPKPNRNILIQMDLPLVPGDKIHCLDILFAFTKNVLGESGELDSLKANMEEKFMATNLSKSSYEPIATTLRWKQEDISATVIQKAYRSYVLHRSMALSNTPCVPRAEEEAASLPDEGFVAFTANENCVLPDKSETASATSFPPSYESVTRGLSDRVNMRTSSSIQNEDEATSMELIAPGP
Experiment: Manual patch-clamp, current of stably overexpressed Nav1.8 channels (resting state voltage program)
Assay type: cell-based
Settings: concentration of 10 nM, read-out: Inhibition rate %

molecule	test-target	endpoint-unit	inhibition at 0.01 µM
COc1c(C2CC(C)(C(F)(F)F)SC2C(=O)Nc2ccc3c(c2)S(=O)(=O)N=CN3)ccc(F)c1F (stereo not drawn) [a-28-A]	Nav1.8 channels (Homo sapiens, UniProt Q9Y5Y9)	%	80.6
COc1c(C2CC(C)(C(F)(F)F)SC2C(=O)Nc2ccnc(S(C)(=O)=O)c2)ccc(F)c1F (stereo not drawn) [Compound 192]	Nav1.8 channels (Homo sapiens, UniProt Q9Y5Y9)	%	96.4
COc1c(C2CC(C)(C(F)(F)F)SC2C(=O)Nc2ccc(F)c(S(C)(=N)=O)c2)ccc(F)c1F (stereo not drawn) [Compound 227]	Nav1.8 channels (Homo sapiens, UniProt Q9Y5Y9)	%	97.7
COc1c(C2CC(C)(C(F)(F)F)SC2C(=O)Nc2ccc3c(c2)COB3O)ccc(F)c1F (stereo not drawn) [Compound 219]	Nav1.8 channels (Homo sapiens, UniProt Q9Y5Y9)	%	88
COc1c([C@@H]2C[C@](C)(C(F)(F)F)S[C@H]2C(=O)Nc2ccc3c(c2)B(O)OC3=O)ccc(F)c1F [a-6-A]	Nav1.8 channels (Homo sapiens, UniProt Q9Y5Y9)	%	76.9
COc1c(C2CC(C)(C(F)(F)F)SC2C(=O)Nc2ccn(C)c(=O)c2)ccc(F)c1F (stereo not drawn) [Compound 172]	Nav1.8 channels (Homo sapiens, UniProt Q9Y5Y9)	%	86.5

====

Target: Nav1.8 channels (Homo sapiens, UniProt Q9Y5Y9)
Construct: expressed in transfected cells
Assay: Manual patch-clamp, current of stably overexpressed Nav1.8 channels (resting state voltage program)
Format: cell-based
Conditions: concentration of 1 nM, read-out: Inhibition rate %
readout-label: inhibition at 0.001 µM (%)

compound	test-target	assay-value
COc1c([C@@H]2C[C@](C)(C(F)(F)F)S[C@H]2C(=O)Nc2ccc([S+](C)[O-])nc2)ccc(F)c1F (stereo partly shown) [Compound 238-A]	Nav1.8 channels (Homo sapiens, UniProt Q9Y5Y9)	85.5
COc1c(C2CC(C)(C(F)(F)F)SC2C(=O)Nc2ccc3nnnn3c2)ccc(F)c1F (stereo not shown) [Compound 202]	Nav1.8 channels (Homo sapiens, UniProt Q9Y5Y9)	81
COc1c(C2C(C(=O)Nc3ccnc(C(N)=O)c3)SC(C)(C(F)(F)F)C2C)ccc(F)c1F (stereo not shown) [Compound 136]	Nav1.8 channels (Homo sapiens, UniProt Q9Y5Y9)	61.9
COc1c([C@@H]2C[C@](C)(C(F)(F)F)S[C@H]2C(=O)Nc2ccc3c(c2)B(O)NC3=O)ccc(F)c1F [Compound a-2]	Nav1.8 channels (Homo sapiens, UniProt Q9Y5Y9)	83.9
